All figures here come from patent US12180146B2.

test system: hypoxic pulmonary hypertension model rats; assay: Hypoxic pulmonary hypertension model rats, oral (gavage) treatment for 28 days; assay type: in vivo, SD rats; conditions: hypoxic PAH rats, 200 mg/kg, po

[
  {
    "compound": "CCc1cccc(C(O)CO)c1 (stereo not drawn)",
    "mPAP, mmHg": 15.21
  },
  {
    "compound": "CCc1cccc(C(COC(C)=O)OC(C)=O)c1 (stereo not drawn)",
    "mPAP, mmHg": 16.03
  },
  {
    "compound": "COc1cccc(C(O)CO)c1 (stereo not drawn)",
    "mPAP, mmHg": 17.19
  },
  {
    "compound": "CCc1ccccc1C(O)CO (stereo not drawn)",
    "mPAP, mmHg": 15.76
  },
  {
    "compound": "OCC(O)c1cccc(F)c1 (stereo not drawn)",
    "mPAP, mmHg": 16.64
  },
  {
    "compound": "CCc1cccc(C(CO)OC2OC(CO)C(O)C(O)C2O)c1 (stereo not drawn)",
    "mPAP, mmHg": 18.60
  }
]

* * *

test system: spontaneously hypertensive rats (SHR); test: Antihypertensive activity test: blood pressure and heart rate of spontaneously hypertensive rats (SHR); format: in vivo, rat; details: 200 mg/kg, 6 h
Structures can show the parent of a compound that is named as a salt.
value type: SBP Difference before and after administration, 6 h (mmHg)

[
  {
    "compound": "CCc1cccc(C(CO)OC(=O)CN)c1 (stereo not drawn)",
    "assay value": 18
  },
  {
    "compound": "CC(=O)c1ccc(C(O)CO)cc1 (stereo not drawn)",
    "assay value": 2
  },
  {
    "compound": "CCc1cccc([C@@H](O)CO)c1",
    "assay value": 14
  },
  {
    "compound": "Cc1cccc(C(O)CO)c1 (stereo not drawn)",
    "assay value": 2
  },
  {
    "compound": "CCc1ccc(C(O)CO)cc1 (stereo not drawn)",
    "assay value": "−1"
  },
  {
    "compound": "[2H]OCC(O[2H])c1cccc(CC)c1 (stereo not drawn)",
    "assay value": 18
  },
  {
    "compound": "COc1ccc([C@@H](O)[C@H](C)O)cc1Cl",
    "assay value": "−1"
  },
  {
    "compound": "COCCc1ccc(OCC(O)CNC(C)C)cc1 (stereo not drawn) [Metoprolol Hydrochloride, reference compound]",
    "assay value": 18
  },
  {
    "compound": "CCc1cccc(C(COC(C)=O)OC(C)=O)c1 (stereo not drawn)",
    "assay value": 5
  },
  {
    "compound": "CC(=O)OC(C)C(OC(C)=O)c1ccccc1 (stereo not drawn)",
    "assay value": 10
  },
  {
    "compound": "CCC(O)c1cccc(CO)c1 (stereo not drawn)",
    "assay value": 14
  },
  {
    "compound": "Cc1ccc(C(O)CO)cc1 (stereo not drawn)",
    "assay value": 3
  },
  {
    "compound": "COc1ccc(C(O)C(=O)O)cc1 (stereo not drawn)",
    "assay value": 9
  },
  {
    "compound": "CC(C)c1cccc(C(O)CO)c1 (stereo not drawn)",
    "assay value": 8
  },
  {
    "compound": "OCC(O)c1cccc(Br)c1 (stereo not drawn)",
    "assay value": 1
  },
  {
    "compound": "COc1cccc(C(O)CO)c1 (stereo not drawn)",
    "assay value": 8
  },
  {
    "compound": "OCC(O)c1ccccc1 (stereo not drawn)",
    "assay value": 15
  },
  {
    "compound": "COP(=O)(OC)OCC(O)c1ccccc1 (stereo not drawn)",
    "assay value": 2
  },
  {
    "compound": "CC(C)(O)[C@H](O)[C@H](O)c1cccc2[nH]ccc12",
    "assay value": 11
  },
  {
    "compound": "OCC(O)c1cccc(F)c1 (stereo not drawn)",
    "assay value": 13
  },
  {
    "compound": "OCC(O)C(OC1OC(CO)C(O)C(O)C1O)c1ccc(O)cc1 (stereo not drawn)",
    "assay value": 14
  },
  {
    "compound": "CCc1ccccc1C(O)CO (stereo not drawn)",
    "assay value": 11
  },
  {
    "compound": "CCc1cccc(C(O)CO)c1 (stereo not drawn)",
    "assay value": 11
  },
  {
    "compound": "CCc1cccc(C(CO)OC2OC(CO)C(O)C(O)C2O)c1 (stereo not drawn)",
    "assay value": 9
  }
]
